The values you see were collected from PubChem BioAssay (Tox21).

- assay text: qHTS assay to identify small molecule agonists of the hypoxia (HIF-1) signaling pathway (AID 1224846); also: % is scaled to controls: 0 for no effect and ±100 for the full control effect
- assay setup: HRE-bla ME-180 cells, beta-lactamase ratio, 17 h; series mostly up to 76.8 µM
Records with an inconclusive call do not appear. Active and inactive are the calls of the source. Calls follow the shape of the dose curve; as a rule, active = well fitted activation curve with a large enough effect in the signal ratio in the repeat runs (not every such curve was filed as active); inconclusive = weak or mixed curves; inactive = flat fitted curve, though single readings scatter; the % refers to the signal ratio.
measured quantity: outcome

Worked set:
smiles structure	outcome
CCOC(=O)CC(=O)OCC	inactive
O=C(O)C1=NN(c2ccc(S(=O)(=O)O)cc2)C(=O)C1	inactive
C=CC(=O)NCOCCCC	inactive
O=C(O)Cc1c[nH]c2ccccc12	inactive
Brc1ccc(Oc2ccc(Br)cc2)cc1	inactive

// next item, outcome requested
The compound listed as `Cc1ccc(C(C)C)cc1` shows outcome equal to inactive

====

- assay text: qHTS assay to identify small molecule HDAC inhibitors (AID 1259364);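 also: wild-type HCT-116 cells with endogenous class I/II HDAC activity; top concentration of the series differs between compounds; % is scaled to controls: 0 for no effect and ±100 for the full control effect; nearly all actives have a fitted effect of over 45% in size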
- assay setup: HCT-116 HDAC-Glo I/II luminescence, 2 h; series mostly up to 92.4 µM
Inconclusive results are not listed. Activity calls are given as the source filed them. Calls follow the shape of the dose curve; as a rule, active = well fitted inhibition curve with a large enough effect in the repeat runs; inconclusive = weak or mixed curves; inactive = flat fitted curve, though single readings scatter.
measured quantity: outcome

compound	outcome
OCCOCCOCCOCCOCCO	inactive
CC(=O)OC(C)(C)C1CC=C(C)CC1 (stereo not drawn)	inactive
CCCOC(=O)NCCCN(C)C	inactive
O=[N+]([O-])c1cc(C(F)(F)F)ccc1Cl	inactive
COc1cc(NC(=O)CC(C)=O)c(OC)cc1Cl	inactive
O=C(NCC1CCCCN1)c1cc(OCC(F)(F)F)ccc1OCC(F)(F)F (stereo not drawn)	inactive

The compound listed as `CC[N+](CC)(CC(=O)Nc1c(C)cccc1C)Cc1ccccc1` shows outcome equal to inactive

The compound listed as NC1CCCCC1N (stereo not drawn) shows outcome equal to inactive

The compound listed as `O=[N+]([O-])c1ccccc1C(F)(F)F` shows outcome equal to inactive

The compound listed as `C=CC(=O)NCOCCCC` shows outcome equal to inactive

The compound listed as CC(O)CNCC(C)O (stereo not drawn) shows outcome equal to inactive

The compound listed as `Cc1cc(C)cc(O)c1` shows outcome equal to inactive

The compound listed as `CC(C)(CO)CO` shows outcome equal to inactive

The compound listed as `O=c1n(CCCN2CCN(c3cccc(Cl)c3)CC2)nc2ccccn12` shows outcome equal to inactive

The compound listed as `CCCCCCC(=O)O` shows outcome equal to inactive

The compound listed as `CCOC(=O)c1ccc(O)cc1` shows outcome equal to inactive

The compound listed as `COc1ccc2cc3[n+](cc2c1OC)CCc1cc2c(cc1-3)OCO2` shows outcome equal to inactive

====

- assay text: qHTS assay for identifying genotoxic compounds that show differential cytotoxicity against isogenic chicken DT40 cell lines with known DNA damage response pathways - Rev3 mutant cell line (AID 743014); also: nearly all actives have a fitted effect of over 55% in size
- assay setup: chicken DT40 Rev3-/- viability, CellTiter-Glo, 40 h; series mostly up to 68.4 µM
Results filed as inconclusive are left out. The source made the active and inactive calls. The call rests on the fitted dose curve; in most records, active means well fitted cell-killing curve with a large enough effect in the repeat runs; inconclusive means weak or mixed curves, or effect the other way; inactive means no such curve, though single readings can be large or run the other way.
Bench note: report the call from 1 (yes) for active, 0 (no) for inactive

Query string: Write down the call the test reported for this compound. Item: `C[Si](C)(C)N[Si](C)(C)C`
Result string: 0 (no)

Query string: Write down the call the test reported for this compound. Item: `CO[Si](CCCNCCN)(OC)OC`
Result string: 0 (no)

Query string: Write down the call the test reported for this compound. Item: `Nc1cccc(C(F)(F)F)c1`
Result string: 0 (no)

Query string: Write down the call the test reported for this compound. Item: `N#CCC(=O)O`
Result string: 0 (no)

Query string: Write down the call the test reported for this compound. Item: `CC(=O)OCc1ccc2c(c1)OCO2`
Result string: 0 (no)

Query string: Write down the call the test reported for this compound. Item: `Cc1ccccc1C=O`
Result string: 0 (no)

Query string: Write down the call the test reported for this compound. Item: `CC1=CC(=O)CC(C)(C)C1`
Result string: 0 (no)

Query string: Write down the call the test reported for this compound. Item: `CC1(C)C(=O)N(Cl)C(=O)N1Cl`
Result string: 0 (no)

Query string: Write down the call the test reported for this compound. Item: `NC(=O)NC(N)=O`
Result string: 0 (no)

Query string: Write down the call the test reported for this compound. Item: CC(O)CNCC(C)O (stereo not given)
Result string: 0 (no)

Query string: Write down the call the test reported for this compound. Item: `O=[N+]([O-])c1ccccc1C(F)(F)F`
Result string: 0 (no)

Query string: Write down the call the test reported for this compound. Item: `CS(=O)(=O)c1ccc(Cl)cc1`
Result string: 0 (no)

Query string: Write down the call the test reported for this compound. Item: `C=C1C[C@]23C[C@@]1(O)CC[C@H]2[C@@]12C=C[C@H](O)[C@@](C)(C(=O)O1)[C@H]2[C@@H]3C(=O)O`
Result string: 0 (no)

Query string: Write down the call the test reported for this compound. Item: NC1CCCCC1N (stereo not given)
Result string: 0 (no)

Query string: Write down the call the test reported for this compound. Item: `Cc1cc(C)cc(O)c1`
Result string: 0 (no)

Query string: Write down the call the test reported for this compound. Item: `CC(=O)Nc1ccc(CC(=O)O)cc1`
Result string: 0 (no)

Query string: Write down the call the test reported for this compound. Item: `COC(=O)OC`
Result string: 0 (no)

Query string: Write down the call the test reported for this compound. Item: `CCCCCCCCO`
Result string: 0 (no)

Query string: Write down the call the test reported for this compound. Item: `CCCCCCCCC(=O)O`
Result string: 0 (no)

Query string: Write down the call the test reported for this compound. Item: `NCCNCCNCCN`
Result string: 0 (no)

Query string: Write down the call the test reported for this compound. Item: `CC(=O)c1nccs1`
Result string: 0 (no)

Query string: Write down the call the test reported for this compound. Item: `C1CCCNCC1`
Result string: 0 (no)

Query string: Write down the call the test reported for this compound. Item: `CC/C=C(\C(=O)N[C@@H]1C(=O)N2C(C(=O)OCOC(=O)C(C)(C)C)=C(COC(N)=O)CS[C@H]12)c1csc(N)n1`
Result string: 0 (no)

Query string: Write down the call the test reported for this compound. Item: `Cc1ccccc1Cl`
Result string: 0 (no)

Query string: Write down the call the test reported for this compound. Item: `CC(=O)OC/C=C(\C)CCC=C(C)C`
Result string: 0 (no)

Query string: Write down the call the test reported for this compound. Item: `O=C(O)Cc1c[nH]c2ccccc12`
Result string: 0 (no)

Query string: Write down the call the test reported for this compound. Item: `Brc1ccc(Oc2ccc(Br)cc2)cc1`
Result string: 0 (no)

Query string: Write down the call the test reported for this compound. Item: `O=C(c1ccccc1)c1ccc(O)c(O)c1O`
Result string: 1 (yes)

Query string: Write down the call the test reported for this compound. Item: `OCc1ccc(Cl)cc1Cl`
Result string: 0 (no)

Query string: Write down the call the test reported for this compound. Item: O=C1C(N(CO)C(=O)NCO)N(CO)C(=O)N1CO (stereo not given)
Result string: 0 (no)
